Source: patent US9512107B2

# testTarget: IDH2 R172K (Homo sapiens, UniProt P48735, R172K)
# Sequence (P48735 40-452 R172K): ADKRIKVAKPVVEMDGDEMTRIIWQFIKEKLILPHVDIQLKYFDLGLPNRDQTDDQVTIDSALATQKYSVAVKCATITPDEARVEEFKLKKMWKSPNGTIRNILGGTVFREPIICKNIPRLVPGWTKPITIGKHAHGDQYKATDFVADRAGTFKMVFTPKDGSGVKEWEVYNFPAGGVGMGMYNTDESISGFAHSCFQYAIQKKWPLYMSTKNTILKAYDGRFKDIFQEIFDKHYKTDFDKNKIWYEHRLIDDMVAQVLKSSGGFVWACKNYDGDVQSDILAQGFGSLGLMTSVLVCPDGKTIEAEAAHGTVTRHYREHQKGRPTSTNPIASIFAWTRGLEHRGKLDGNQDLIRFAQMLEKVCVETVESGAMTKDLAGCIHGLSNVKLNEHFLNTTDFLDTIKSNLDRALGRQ
# experimentDescription: IDH2 R172K enzymatic assay (NADPH cofactor depletion, diaphorase/resazurin readout)
# details: read-out: Enz R172K
measurementLabel: IC50

[[record]]
molecule = "CC(C)Nc1nc(Nc2ccnc(C(F)F)c2)nc(-c2cccc(C(C)(F)F)n2)n1 [Compound 675]"
testvalue = "< 100 nM"

[[record]]
molecule = "Cc1cccc(C)c1-c1nc(Nc2ccccc2)nc(NC(C)C)n1 [Compound 117]"
testvalue = "1000 to 10000 nM"

[[record]]
molecule = "CCCCNc1nc(Nc2ccncc2)nc(-c2ccccc2)n1 [Compound 211]"
testvalue = "100 to 1000 nM"

[[record]]
molecule = "CC(C)(O)CNc1nc(Nc2ccnc(C(C)(F)F)c2)nc(-c2cccc(C(C)(F)F)n2)n1 [Compound 605]"
testvalue = "100 to 1000 nM"

[[record]]
molecule = "CC(C)(CO)CNc1nc(Nc2ccnc(C(F)(F)F)c2)nc(-c2cccc(C(F)(F)F)n2)n1 [Compound 530]"
testvalue = "100 to 1000 nM"


Reported IC50, molecule CC(F)(F)c1cc(Nc2nc(NCC3CC3)nc(-c3cccc(C(F)(F)F)n3)n2)ccn1 [Compound 604] : ____
< 100 nM

Also c1ccc(-c2nc(Nc3ccncc3)nc(NC3COC3)n2)cc1 [Compound 236] ?
1000 to 10000 nM

Also O=C(Nc1nc(Nc2ccccc2)nc(-c2ccccc2)n1)C1CCCO1 (centres unmarked) [Compound 243] ?
1000 to 10000 nM

Also CC(C)Nc1nc(Nc2cccc(S(C)(=O)=O)c2)nc(-c2cc(Cl)cc(Cl)n2)n1 [Compound 483] ?
1000 to 10000 nM

Also CC(C)Nc1nc(Nc2ccnc(C(C)(C)O)c2)nc(-c2cccc(C(F)(F)F)n2)n1 [Compound 496] ?
< 100 nM

Also COCC(C)Nc1nc(Nc2ccccc2)nc(-c2ccccc2)n1 (centres unmarked) [Compound 269] ?
100 to 1000 nM

###

# Tested on: U87MG pLVX-IDH2 R140Q-neo cells
# experimentDescription: U87MG pLVX-IDH2 R140Q-neo cell based assay, 2-HG in media by LC-MS at 48 hours
# details: Homo sapiens, U-87 MG
pIC50: −log10 of the molar value.
// values below are reported pIC50

[[record]]
compound = "CC(C)Nc1nc(Nc2ccnc(C(F)(F)F)c2)nc(-c2cccc(C(F)(F)F)n2)n1"
measurementlabel = "pIC50"
testvalue = "> 7.00"


Reported pIC50, compound c1ccc(Nc2nc(NCC3CCO3)nc(-c3ccccc3)n2)cc1 (stereo not shown) : ____
6.00 to 7.00

Also Cc1ccccc1Nc1nc(NC(C)C)nc(-c2ccccc2)n1 ?
6.00 to 7.00

###

# Tested on: U87MG pLVX-IDH2 R140Q-neo cells
# experimentDescription: U87MG pLVX-IDH2 R140Q-neo cell based assay, 2-HG in media by LC-MS at 48 hours
# details: Homo sapiens, U-87 MG
measurementLabel: IC50

Some molecules with recorded IC50:
[[record]]
molecule = "CC1(Nc2nc(Nc3ccnc(C(F)(F)F)c3)nc(-c3cccc(N)n3)n2)CC1"
measurementlabel = "IC50"
testvalue = "< 0.1 µM"

[[record]]
molecule = "c1ccc(-c2nc(Nc3ccncc3)nc(NC3CCCC3)n2)cc1"
measurementlabel = "IC50"
testvalue = "< 0.1 µM"

[[record]]
molecule = "CC(C)(O)CNc1nc(Nc2ccnc(C(C)(C)C#N)c2)nc(-c2cccc(C(F)(F)F)n2)n1"
measurementlabel = "IC50"
testvalue = "< 0.1 µM"

[[record]]
molecule = "c1ccc(-c2nc(Nc3ccncc3)nc(NC3CCOC3)n2)cc1 (stereo not drawn)"
measurementlabel = "IC50"
testvalue = "0.1 to 1 µM"


Reported IC50, molecule CC(C)Nc1nc(Nc2ccnc(C(F)F)c2)nc(-c2cccc(C(F)F)n2)n1 : ____
< 0.1 µM

Also c1ccc(-c2nc(Nc3ccncc3)nc(NC3COC3)n2)cc1 ?
0.1 to 1 µM

Also N#CC1(c2cc(Nc3nc(NCC4CC4)nc(-c4cccc(C(F)(F)F)n4)n3)ccn2)CC1 ?
< 0.1 µM

###

# testTarget: IDH2 R140Q (Homo sapiens, UniProt P48735, R140Q)
# Sequence (P48735 40-452 R140Q): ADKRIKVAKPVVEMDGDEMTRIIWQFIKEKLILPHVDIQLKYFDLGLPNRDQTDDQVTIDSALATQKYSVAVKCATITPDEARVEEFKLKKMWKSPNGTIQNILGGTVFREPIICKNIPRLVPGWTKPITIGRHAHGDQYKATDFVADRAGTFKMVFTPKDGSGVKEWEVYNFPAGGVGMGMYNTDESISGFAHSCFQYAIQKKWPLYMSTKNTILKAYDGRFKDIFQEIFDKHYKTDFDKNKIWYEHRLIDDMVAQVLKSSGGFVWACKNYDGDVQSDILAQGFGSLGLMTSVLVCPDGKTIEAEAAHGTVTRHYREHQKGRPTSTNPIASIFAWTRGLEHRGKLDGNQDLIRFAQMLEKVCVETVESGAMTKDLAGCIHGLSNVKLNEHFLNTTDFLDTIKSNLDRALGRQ
# experimentDescription: IDH2 R140Q enzymatic assay (cofactor depletion, similar format)
# Type: biochemical
# details: read-out: Enz R140Q
// values below are reported IC50

[[record]]
chemicalstructure = "CC(C)Nc1nc(Nc2cccc(S(C)(=O)=O)c2)nc(-c2cccc(Cl)n2)n1"
measurementlabel = "IC50"
testvalue = "100 to 1000 nM"


Reported IC50, molecule CCC(=O)Nc1nc(Nc2ccccc2)nc(-c2ccccc2)n1 : ____
< 100 nM

Also CC(C)(C)OC(=O)N1CCC(Nc2nc(Nc3ccccc3)nc(-c3ccccc3)n2)CC1 ?
100 to 1000 nM

Also Fc1ccccc1-c1nc(Nc2ccnc(C(F)(F)F)c2)nc(NC2COC2)n1 ?
< 100 nM

Also Fc1ccc(Nc2nc(NC3COC3)nc(-c3cccc(C(F)(F)F)n3)n2)cn1 ?
100 to 1000 nM

###

# testTarget: IDH2 R140Q (Homo sapiens, UniProt P48735, R140Q)
# experimentDescription: IDH2 R140Q enzymatic assay (cofactor depletion, similar format)
# Type: biochemical
# details: read-out: Enz R140Q
measurementLabel: IC50

Some compounds with recorded IC50:
[[record]]
chemicalstructure = "c1ccc(Nc2nc(NC3CCOCC3)nc(-c3ccccc3)n2)cc1"
testvalue = "< 0.1 µM"

[[record]]
chemicalstructure = "COC(C)(C)CNc1nc(Nc2ccncc2)nc(-c2ccccc2)n1"
testvalue = "0.1 to 1 µM"

[[record]]
chemicalstructure = "CC(C)Nc1nc(Nc2ccnc(F)c2)nc(-c2ccccc2)n1"
testvalue = "< 0.1 µM"


--- query ---
Reported IC50, compound CC(C)Nc1nc(Nc2cc(F)cc(F)c2)nc(-c2cccc(Cl)n2)n1 : ____
< 0.1 µM

###

# testTarget: IDH2 R140Q (Homo sapiens, UniProt P48735, R140Q)
# experimentDescription: IDH2 R140Q enzymatic assay (cofactor depletion, similar format)
# Format: biochemical
# details: read-out: Enz R140Q
pIC50: −log10 of the molar value.
measurementLabel: pIC50

Some molecules with recorded pIC50:
[[record]]
molecule = "CC(C)Nc1nc(Nc2cccc(S(C)(=O)=O)c2)nc(-c2cccc(C(F)(F)F)n2)n1"
testvalue = "6.00 to 7.00"

[[record]]
molecule = "COc1cccc(-c2nc(Nc3cccc(S(C)(=O)=O)c3)nc(NC(C)C)n2)n1"
testvalue = "6.00 to 7.00"

[[record]]
molecule = "CC(C)(C)Nc1nc(Nc2ccnc(C3CC3)c2)nc(-c2cccc(C(F)(F)F)n2)n1"
testvalue = "6.00 to 7.00"

[[record]]
molecule = "CC(C)Nc1nc(Nc2cnoc2)nc(-c2ccccc2)n1"
testvalue = "> 7.00"

[[record]]
molecule = "COC1CC(Nc2nc(Nc3ccncc3)nc(-c3ccccc3)n2)C1 (centres unmarked)"
testvalue = "< 5.00"

[[record]]
molecule = "CC(C)Nc1nc(Nc2ccnc(N3CCOCC3)c2)nc(-c2ccccc2)n1"
testvalue = "> 7.00"


Fill in the recorded pIC50 for this molecule, with IDH2 R140Q (Homo sapiens, UniProt P48735, R140Q) as test system: CC1(CNc2nc(Nc3ccncc3)nc(-c3ccccc3)n2)CCCO1 (centres unmarked)
6.00 to 7.00

Also CS(=O)(=O)c1cccc(Nc2nc(NC3CCOCC3)nc(-c3ccccc3)n2)c1 ?
6.00 to 7.00

Also CC(CO)Nc1nc(Nc2ccnc(C(F)(F)F)c2)nc(-c2cccc(C(F)(F)F)n2)n1 (centres unmarked) ?
6.00 to 7.00

Also CC(C)Nc1nc(Nc2cncnc2)nc(-c2ccccc2)n1 ?
> 7.00

Also COc1cccc(-c2nc(Nc3ccnc(C(F)(F)F)c3)nc(NC(C)C)n2)c1F ?
> 7.00

###

# System: U87MG pLVX-IDH2 R140Q-neo cells
# experimentDescription: U87MG pLVX-IDH2 R140Q-neo cell based assay, 2-HG in media by LC-MS at 48 hours
# details: Homo sapiens, U-87 MG
// values below are reported IC50

Some molecules with recorded IC50:
[[record]]
molecule = "CC(CO)Nc1nc(Nc2ccccc2)nc(-c2ccccc2)n1 (stereo not shown) [Compound 241]"
measurementlabel = "IC50"
testvalue = "0.1 to 1 µM"

[[record]]
molecule = "CC(C)Nc1nc(Nc2ccnc(C(F)(F)F)c2)nc(-c2cc(O)cc(CO)c2)n1 [Compound 665]"
measurementlabel = "IC50"
testvalue = "< 0.1 µM"

[[record]]
molecule = "CC(C)(O)CNc1nc(Nc2ccnc(C(F)(F)F)c2)nc(-c2cccc(C(F)(F)F)n2)n1 [Compound 409]"
measurementlabel = "IC50"
testvalue = "< 0.1 µM"


Reported IC50, molecule Nc1ccnc(-c2nc(NCC(F)(F)F)nc(Nc3cc(F)cc(F)c3)n2)n1 [Compound 480] : ____
< 0.1 µM

Also CC(C)C(CO)Nc1nc(Nc2ccccc2)nc(-c2ccccc2)n1 (stereo not shown) [Compound 242] ?
0.1 to 1 µM

Also COCCNc1nc(Nc2ccccc2)nc(-c2ccccc2)n1 [Compound 225] ?
0.1 to 1 µM

Also CC(C)Nc1nc(Nc2ccc(F)nc2)nc(-c2cccc(Cl)n2)n1 [Compound 344] ?
< 0.1 µM

Also CC(C)(C)COC(=O)Nc1nc(Nc2ccccc2)nc(-c2ccccc2)n1 [Compound 208] ?
0.1 to 1 µM

Also CC(C)Nc1nc(Nc2ccccc2)nc(-c2ccn[nH]2)n1 [Compound 148] ?
0.1 to 1 µM

Also CC(C)(C)Nc1nc(Nc2ccnc(C(C)(F)F)c2)nc(-c2cccc(C(F)(F)F)n2)n1 [Compound 567] ?
< 0.1 µM
